As shown below, each of these binders has a reported IC50 (pVNT) value.
target: BQ.1.1 spike protein (SARS-CoV-2 variant BQ.1.1, UniProt P0DTC2 14-1273); assay: cell-based or functional assay

| Binder | IC50 (pVNT) |
| --- | --- |
| Ab43 (10x-L8N-c42) (antibody, V domains shown) VH: EVQLVESGGGLVKPGGSLRLSCAASGFTFSRHTMNWVRQAPGKGLEWVSSIGGSTPLSFYAESVKGRFSISRDNAKSSLFLQMSSLRADDTAVYYCVRDSIASVTTLFDLWGRGTVVTVSS VL: DIQMTQSPSSLSASVGDRVTITCRASQTIRNYINWYQQRPGKAPRLLIYDASTLQSGVPSRFSGGGSGTDFTLTISSLEPEDFATYYCQQSYVSPPEDSFGQGTKLEIK | ≤ 550 ng/ml |
| Ab28 (10x-L8N-c1) (antibody, V domains shown) VH: QFQLVQSGAEVKKPGSSVKVSCRASGGSFTSHAISWVRQAPGQGFEWMGRIIPMFGIANYAPKFQGRVTMSADKFKDIVYMEVNSLTSEDTALYYCARSQPMTSVTTLWFDPWGQGTLVTVSS VL: EIVLTQSPGTLSLSPGERATLSCRASEPVGGSYLAWYQQKPGQAPRLLIHGASSRATGIPDRFSGSGSGTDFVLTISRLEPEDFAVYHCQQYASSPYTFGQGTKLEIK | ≤ 550 ng/ml |
| Ab2 (H12.2) (antibody, V domains shown) VH: EFQLVESGGRLVRPGGSLRLSCVASEIIVSRNYMSWIRQAPGKGLEWVSILYAGGTTYYADSVKGRFTISRDNSKNTLYLQLNSLRVEDTAIYYCVRPIVGGRGGMDVWGQGTTVTVSS VL: DIQMTQSPSSLSASVGDRVTITCQASQDINKYLNWYQQKPGKAPKLLIYDASNLEPGVPSRFSGSGSGTDFVFTITSLQPEDIATYYCHYYDDVPYTFGQGTQLEIK | ≤ 300 ng/ml |
